Hello, the source for this data is paper PMC10978636, in case you need it.

Recorded Km for the following molecules
# Test system: ArH(P)PR
# RUN_DESCRIPTION: photometric NAD(P)H oxidation at […] nm, Michaelis-Menten fit
# Type: biochemical, Actaea racemosa
# CONDITION_DETAILS: 1 mM NADPH, 0.1 M KPi pH 7.5
QUANTITY: Km

[[record]]
molecule = "O=C(O)C(=O)Cc1ccc(O)cc1 [pHPP, 4-hydroxyphenylpyruvic acid]"
test_value = "1.13 mM"

[[record]]
molecule = "CC(=O)C(=O)O"
test_value = "1.89 mM"

[[record]]
molecule = "O=C(O)C(=O)Cc1ccc(O)c(O)c1 [DHPP, 3,4-dihydroxyphenylpyruvic acid]"
test_value = "24 mM"

[[record]]
molecule = "O=C(O)C(=O)Cc1ccccc1"
test_value = "5.32 mM"

